Measured values drawn from paper PMC6522510 for this set.

# System: ML-2
# assay_protocol: cells
# Parameters: species or system AML cell lines (8); Secondary HTS, 10-point dose-response in triplicate, Cell Titer Glo viability, four-parameter fit EC50
# condition_context: Homo sapiens, ML-2, 72 h, read-out: ML-2
Reported pEC50 values for a set of compounds
Schema: pEC50 number; meaning minus log10 of the concentration expressed in molar units.

The examples below pair each entry with its known result.
[
  {
    "compound": "CC(C)C[C@H](NC(=O)CNC(=O)c1cc(Cl)ccc1Cl)B(O)O [IXAZOMIB]",
    "system_tested": "ML-2",
    "measured_property": "pEC50",
    "value_observed": 8.28
  },
  {
    "compound": "CC(C)C[C@H](NC(=O)[C@H](CCc1ccccc1)NC(=O)CN1CCOCC1)C(=O)N[C@@H](Cc1ccccc1)C(=O)N[C@@H](CC(C)C)C(=O)[C@@]1(C)CO1 [Carfilzomib]",
    "system_tested": "ML-2",
    "measured_property": "pEC50",
    "value_observed": 8.54
  },
  {
    "compound": "Cn1cc(/C=C/C(=O)c2cccc(F)c2)cc1/C=C/C(=O)NO [SJ000784269, MC1568]",
    "system_tested": "ML-2",
    "measured_property": "pEC50",
    "value_observed": 5.37
  }
]

# next compound below
Asked: Report pEC50 for COc1ccc(-c2cc3c(C)nc(N)nc3n([C@H]3CC[C@H](OCCO)CC3)c2=O)cn1 [SJ000784313, PF-04691502] please.
Given back: 6.64
